Provenance of the data: patent US20240247080A1

Quick reference for EC50 CreLuc hGIPR 0.5% hP among some binders
Target: T1, human GIP receptor (human, UniProt P48546 22-466)
T1 sequence (looked up): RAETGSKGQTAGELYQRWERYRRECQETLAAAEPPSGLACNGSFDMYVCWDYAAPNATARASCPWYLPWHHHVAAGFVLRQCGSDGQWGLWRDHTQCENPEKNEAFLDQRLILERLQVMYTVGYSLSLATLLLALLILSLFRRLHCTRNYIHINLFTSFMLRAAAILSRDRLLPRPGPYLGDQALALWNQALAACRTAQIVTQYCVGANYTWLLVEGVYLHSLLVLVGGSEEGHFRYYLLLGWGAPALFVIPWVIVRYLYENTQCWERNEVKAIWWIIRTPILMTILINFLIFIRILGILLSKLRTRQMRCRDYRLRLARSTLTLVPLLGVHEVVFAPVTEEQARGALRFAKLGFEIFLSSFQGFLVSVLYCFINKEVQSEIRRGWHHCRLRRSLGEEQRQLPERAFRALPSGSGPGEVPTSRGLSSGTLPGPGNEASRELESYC
Assay: cell-based or functional assay
Starred links: 1 amine or outer side, 2 acyl side, 3 side chain; linkers in the order of their positions; H or OH if unused. Non-standard residues stand in square brackets, D forms with d. Groups on a side chain read outwards from the residue. No end group written: not given here. *: point of attachment. C20 diacid = O=C(O)CCCCCCCCCCCCCCCCCCC(=O)*; C18 diacid = O=C(O)CCCCCCCCCCCCCCCCC(=O)*; γGlu = O=C(O)[C@H](CCC(=O)[*:2])N[*:1]; εLys = N[C@@H](CCCCN[*:1])C(=O)[*:2]; AEEA = NCCOCCOCC(=O)O; Aib = CC(C)(N)C(=O)O
quantity: EC50 CreLuc hGIPR 0.5% hP (nM)

binder="Y[Aib]EGTFTSDYSI[Aib]LEEQAQ[Aib]AFVEWLIK([εLys-γGlu-γGlu-γGlu-γGlu-C20 diacid])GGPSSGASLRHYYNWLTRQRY-NH2 [Compound 97]" endpoint_unit=nM val=0.14
binder="Y[Aib]EGTFTSDYSI[Aib]LEKQAQ[Aib]EFVEWLIK([AEEA-AEEA-γGlu-γGlu-γGlu-C18 diacid])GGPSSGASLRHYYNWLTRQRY-NH2 [Compound 171]" endpoint_unit=nM val=0.2
binder="YXEGTFTSDYSIXLEKQAQXAFVEWLIKGGPSSAASLRHYYNWLTRQRY (Aib at 2, 13, 20; K28 side chain: C20DA-gGlu-gGlu-gGlu-gGlu-gGlu-gGlu-eLys; C-terminal NH2) [Compound 98]" endpoint_unit=nM val=0.44
binder="Y[Aib]EGTFTSDYSI[Aib]LEKQAQ[Aib]AFVQWLIK([εLys-γGlu-γGlu-γGlu-γGlu-γGlu-C20 diacid])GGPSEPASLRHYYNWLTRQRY-NH2 [Compound 169]" endpoint_unit=nM val=0.26
